# test-system: PLK1 (Homo sapiens, UniProt P53350)
# Sequence (P53350 whole entry): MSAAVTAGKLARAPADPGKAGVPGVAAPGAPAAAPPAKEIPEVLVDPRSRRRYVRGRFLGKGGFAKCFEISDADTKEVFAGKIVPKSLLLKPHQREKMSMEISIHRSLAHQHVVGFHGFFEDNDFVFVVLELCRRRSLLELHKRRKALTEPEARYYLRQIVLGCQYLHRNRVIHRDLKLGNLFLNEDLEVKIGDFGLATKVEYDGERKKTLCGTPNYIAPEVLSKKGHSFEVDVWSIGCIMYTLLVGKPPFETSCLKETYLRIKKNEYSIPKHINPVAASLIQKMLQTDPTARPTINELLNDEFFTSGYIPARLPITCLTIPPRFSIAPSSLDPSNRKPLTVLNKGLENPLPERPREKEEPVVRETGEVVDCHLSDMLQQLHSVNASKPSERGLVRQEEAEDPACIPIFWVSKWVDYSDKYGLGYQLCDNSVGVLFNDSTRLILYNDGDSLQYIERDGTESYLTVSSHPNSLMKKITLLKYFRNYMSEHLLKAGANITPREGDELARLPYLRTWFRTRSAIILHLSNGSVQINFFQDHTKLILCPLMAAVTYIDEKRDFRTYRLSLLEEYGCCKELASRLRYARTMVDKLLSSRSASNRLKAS
# method-notes: PLK TR-FRET peptide assay, PLK1
# Type: biochemical
# condition-parameters: GST-PLK1, 60 min reaction
pIC50: −log10 of the molar value.
experimental-readout: pIC50

Sample records with pIC50:
CC[C@@H]1C(=O)N(C)c2cnc(-n3ccnc3-c3ccc(F)c(F)c3)nc2N1C1CC(F)C1 (stereo partly drawn)
5.00 to 6.00
CC[C@@]12CCCN1c1nc(-c3nccnc3-c3ccccc3)ncc1N(C)C2=O
4.30 to 5.00
[2H]C([2H])([2H])N1C(=O)C(C([2H])([2H])C([2H])([2H])[2H])N(C([2H])(C([2H])([2H])[2H])C([2H])([2H])[2H])c2nc(-n3ccnc3-c3cccc(OC(F)(F)F)c3)ncc21 (stereo not drawn)
5.00 to 6.00
[2H]C([2H])([2H])N1C(=O)C(C([2H])([2H])C([2H])([2H])[2H])N(C([2H])(C([2H])([2H])[2H])C([2H])([2H])[2H])c2nc(-n3ccnc3-c3cccc(F)c3)ncc21 (racemic)
> 6.00
CC[C@@H]1C(=O)N(C)c2cnc(-n3ccnc3-c3cccc(Br)c3)nc2N1C(C)C
> 6.00
CC[C@@H]1C(=O)N(C)c2cnc(-n3ccnc3-c3ccc(F)cn3)nc2N1CCC(F)(F)F
4.30 to 5.00

q: Entry `CC[C@@]12CCCN1c1nc(-n3ccnc3-c3cccc(-n4cncn4)c3)ncc1N(C)C2=O` needs its pIC50 filled in; supply it.
a: 4.30 to 5.00

q: Input [2H]C([2H])([2H])N1C(=O)C(C([2H])([2H])C([2H])([2H])[2H])N(C([2H])(C([2H])([2H])[2H])C([2H])([2H])[2H])c2nc(-n3ccnc3-c3ccc(OC(F)(F)F)cc3)ncc21 (stereo not drawn) , output reported pIC50.
a: 4.30 to 5.00

q: Supply measured pIC50 of `CC[C@@H]1CC[C@@]2(CC)C(=O)N(C)c3cnc(-c4cn[nH]c4-c4nccs4)nc3N12` in your reply.
a: > 6.00

q: State, in one line, measured pIC50 of `CC[C@@H]1C(=O)N(C)c2cnc(-c3ccc[nH]3)nc2N1C1CCCC1`
a: > 6.00

q: Let me know recorded pIC50 for CC[C@@H]1C(=O)N(C)c2cnc(-n3ccnc3-c3cccc(F)c3F)nc2N1C1CCOC1 (stereo partly drawn) , thanks.
a: > 6.00

q: Please supply the value of reported pIC50 for the item CC[C@@H]1C(=O)N(C)c2cnc(-n3ccnc3-c3ccc(F)cc3)nc2N1C(C)C1CC1 (stereo partly drawn)
a: 5.00 to 6.00

q: Note down pIC50 recorded for `CC[C@@]12CCCN1c1nc(-n3ccnc3-c3cccc(F)c3)ncc1N(C)C2=O`
a: 5.00 to 6.00

q: Give the measured pIC50 for `CC[C@@H]1C(=O)N(C)c2cnc(-n3ccnc3-c3ccc(F)cc3)nc2N1CC1CC1`
a: 5.00 to 6.00

q: Answer with the recorded pIC50 for the compound listed here: `CC[C@@H]1C(=O)N(C)c2cnc(-c3ccncc3NS(C)(=O)=O)nc2N1C1CCCC1`
a: 5.00 to 6.00

q: Complete the entry with pIC50 for `CC[C@@H]1C(=O)N(C)c2cnc(-n3ccnc3-c3nccs3)nc2N1C1CCCC1`
a: > 6.00

q: Specify measured pIC50 for `CC[C@@H]1C(=O)N(C)c2cnc(-n3ccnc3-c3ccccc3F)nc2N1C1CCC1` .
a: > 6.00

q: Given the compound `CC[C@@H]1C(=O)N(C)c2cnc(N3CCN=C3C3CC3)nc2N1C(C)C` , write its reported pIC50.
a: 4.30 to 5.00

q: For `CC[C@@H]1C(=O)N(C)c2cnc(-c3ccncc3CN)nc2N1C(C)C` , write its pIC50.
a: < 4.30

q: Give recorded pIC50. `CC[C@@H]1C(=O)N(C)c2cnc(-n3ccnc3-c3ccc(C(F)(F)F)cc3)nc2N1C(C)C`
a: 5.00 to 6.00
